Every entry's value here was drawn from ChEMBL document CHEMBL2169868.

experiment.notes: Elimination half life in Sprague-Dawley rat at 25 mg/kg, po by LC-MS/MS method
Format: ADME, organism-based
Design: dose 25 mg/kg, route oral
assay.setup: in vivo, read-out: beta t1/2 (converted)
endpoint: half-life (h)
Give bare numbers, in h.

- compound: "CC(C)NC[C@H](O)COc1ccc2c(=O)cc(-c3cc(O)cc(O)c3)oc2c1"
  half-life / h: 3.39

Which half-life value belongs to CC(C)(C)NC[C@H](O)COc1ccc2c(=O)cc(-c3cc(OCc4ccccc4)cc(OCc4ccccc4)c3)oc2c1 ?
19.8

* * *

experiment.notes: Mean residence time in Sprague-Dawley rat at 10 mg/kg, iv by LC-MS/MS method
Assay type: ADME, organism-based
Design: dose 10 mg/kg, route intravenous
assay.setup: in vivo
endpoint: MRT (h)
One number for each entry, in h.

Endpoint output: MRT of CC(C)(C)NCC(O)COc1ccc2c(=O)cc(-c3cc(OCc4ccccc4)cc(OCc4ccccc4)c3)oc2c1 (racemic) . Value?
22.8

* * *

Tested on: Mus musculus
experiment.notes: Antidyslipidemic activity in diabetic C57BL/KsJ db/db mouse model assessed as increase in plasma HDL-C/cholesterol ratio at 25 mg/kg, po qd for 10 days
Assay type: functional
Kindly supply the reported Percent increase in HDL-C/cholesterol ratio vs vehicle values for the records listed here.
Give bare numbers.

- compound: "CC(C)(C)NCC(O)COc1ccc2c(=O)cc(-c3cc(OCc4ccccc4)cc(OCc4ccccc4)c3)oc2c1 (racemic)"
  result.number: 55.7

Record Percent increase in HDL-C/cholesterol ratio vs vehicle for all entries; do not skip any.
1. CC(C)(C)NC[C@@H](O)COc1ccc2c(=O)cc(-c3cc(OCc4ccccc4)cc(OCc4ccccc4)c3)oc2c1
2. CN(CCOc1ccc(CC2SC(=O)NC2=O)cc1)c1ccccn1 (configuration not stated)
3. CC(C)NCC(O)COc1ccc2c(=O)cc(-c3cc(O)cc(O)c3)oc2c1 (racemic)
4. CC(C)NC[C@@H](O)COc1ccc2c(=O)cc(-c3cc(O)cc(O)c3)oc2c1
5. CC(C)NC[C@H](O)COc1ccc2c(=O)cc(-c3cc(O)cc(O)c3)oc2c1

1: 28.8; 2: 108.7; 3: 32.1; 4: 16.6; 5: 68.7

Give the reported Percent increase in HDL-C/cholesterol ratio vs vehicle for CC(C)(C)NC[C@H](O)COc1ccc2c(=O)cc(-c3cc(OCc4ccccc4)cc(OCc4ccccc4)c3)oc2c1 (system: Mus musculus).
92.5

* * *

Tested on: Rattus norvegicus
experiment.notes: Antihyperlipidemic activity in Triton-induced dyslipidemic Wistar rat model assessed as reduction in phospholipid level at 100 mg/kg, po
Format: functional
Design: scale not given: the % may be the effect or the level left
What Activity was measured for each of the following?
One number for each entry, in %.

- compound: "CC(C)NCC(O)COc1ccc2c(=O)cc(-c3cc(OCc4ccccc4Cl)cc(OCc4ccccc4Cl)c3)oc2c1 (stereo not drawn)"
  value.unit: "%"
  Activity: 20.2
- compound: "COc1ccc(-c2cc(=O)c3ccc(OCC(O)CN4CCN(c5ccccc5)CC4)cc3o2)cc1OC (stereo not drawn)"
  value.unit: "%"
  Activity: 22

Quick one: give me Activity for each item below, same order please.
1. Cc1ccc(COc2cc(OCc3ccc(C)cc3)cc(-c3cc(=O)c4ccc(OCC(O)CN(C(C)C)C(C)C)cc4o3)c2)cc1 (stereo not drawn)
2. COc1cc(OC)cc(-c2cc(=O)c3ccc(OCC(O)CN4CCN(c5ccccc5)CC4)cc3o2)c1 (stereo not drawn)
3. CC(C)(C)NCC(O)COc1ccc2c(=O)cc(-c3cc(OCc4ccccc4)cc(OCc4ccccc4)c3)oc2c1 (racemic)
4. CC(C)(C)NCC(O)COc1ccc2c(=O)cc(-c3cc(OCc4cc(Cl)cc(Cl)c4)cc(OCc4cc(Cl)cc(Cl)c4)c3)oc2c1 (stereo not drawn)
5. CC(C)(C)NCC(O)COc1ccc2oc(-c3ccc(OCc4ccccc4)c(OCc4ccccc4)c3)cc(=O)c2c1 (stereo not drawn)
6. CC(C)(C)NCC(O)COc1ccc2c(=O)cc(-c3ccc(O)c(O)c3)oc2c1 (stereo not drawn)

4.67
12.8
18
12.2
12
23

* * *

System: Mus musculus
experiment.notes: Reduction in body weight in diabetic C57BL/KsJ db/db mouse model in hyperglycemia at 25 mg/kg, po qd for 10 days relative to untreated control
Format: functional
Set-up: scale not given: the % may be the effect or the level left
The source made the active and inactive calls. No cut-off for these calls is given here.
endpoint: Activity

# count of solved cases: 6
- compound: "CN(CCOc1ccc(CC2SC(=O)NC2=O)cc1)c1ccccn1 (configuration not stated) [ROSIGLITAZONE]"
  endpoint: "Activity"
  result: "-18.3%"
- compound: "CC(C)NCC(O)COc1ccc2c(=O)cc(-c3cc(O)cc(O)c3)oc2c1 (racemic)"
  endpoint: "Activity"
  result: "inactive"
- compound: "CC(C)(C)NCC(O)COc1ccc2c(=O)cc(-c3cc(OCc4ccccc4)cc(OCc4ccccc4)c3)oc2c1 (racemic)"
  endpoint: "Activity"
  result: "inactive"
- compound: "CC(C)(C)NC[C@@H](O)COc1ccc2c(=O)cc(-c3cc(OCc4ccccc4)cc(OCc4ccccc4)c3)oc2c1"
  endpoint: "Activity"
  result: "inactive"
- compound: "CC(C)(C)NC[C@H](O)COc1ccc2c(=O)cc(-c3cc(OCc4ccccc4)cc(OCc4ccccc4)c3)oc2c1"
  endpoint: "Activity"
  result: "28.2%"
- compound: "CC(C)NC[C@@H](O)COc1ccc2c(=O)cc(-c3cc(O)cc(O)c3)oc2c1"
  endpoint: "Activity"
  result: "inactive"

The record that follows has no Activity shown yet.
Would you mind telling me what Activity value was observed for CC(C)NC[C@H](O)COc1ccc2c(=O)cc(-c3cc(O)cc(O)c3)oc2c1 ?
inactive

* * *

Tested on: Rattus norvegicus
experiment.notes: Antihyperlipidemic activity in Triton-induced dyslipidemic Wistar rat model assessed as reduction in triglyceride level at 100 mg/kg, po
Assay type: functional
Parameters: scale not given: the % may be the effect or the level left
Can you tell me Activity for the items I'm about to list?
One number for each entry, in %.

Guide cases for Activity, answers given:
- molecule: "CC(C)(C)NCC(O)COc1ccc2c(=O)cc(-c3cc(OCc4ccccc4Cl)cc(OCc4ccccc4Cl)c3)oc2c1 (stereo not drawn)"
  value.unit: "%"
  Activity: 18.7
- molecule: "CC(C)(C)NCC(O)COc1ccc2c(=O)cc(-c3cc(OCc4cc(Cl)cc(Cl)c4)cc(OCc4cc(Cl)cc(Cl)c4)c3)oc2c1 (stereo not drawn)"
  value.unit: "%"
  Activity: 11.3

Each molecule below has a reported value. Please supply its Activity.
1. Cc1ccccc1COc1cc(OCc2ccccc2C)cc(-c2cc(=O)c3ccc(OCC(O)CNC(C)C)cc3o2)c1 (stereo not drawn)
2. Cc1ccc(COc2cc(OCc3ccc(C)cc3)cc(-c3cc(=O)c4ccc(OCC(O)CNC(C)C)cc4o3)c2)cc1 (stereo not drawn)
3. O=c1cc(-c2cc(OCc3ccccc3)cc(OCc3ccccc3)c2)oc2cc(OCC(O)CN3CCN(c4ccccc4)CC3)ccc12 (stereo not drawn)
4. CC(C)NCC(O)COc1ccc2c(=O)cc(-c3ccc(O)c(O)c3)oc2c1 (stereo not drawn)

26.2
25.6
17
19

// for each molecule below, give its Activity
1. CN(C)C(=N)NC(=N)N
2. CC(C)(C)NCC(O)COc1ccc2oc(-c3ccc(O)c(O)c3)cc(=O)c2c1 (stereo not drawn)

1. 5.9
2. 25

* * *

Provide the reported Activity of each item.
Test system: Rattus norvegicus
experiment.notes: Antihyperlipidemic activity in Triton-induced dyslipidemic Wistar rat model assessed as reduction in triglyceride level at 100 mg/kg, po
Type: functional
Parameters: scale not given: the % may be the effect or the level left
Numbers only, in %.

Solved cases (5 shown):
- compound: "COc1cc(-c2cc(=O)c3ccc(OCC(O)CNC(C)C)cc3o2)cc(OC)c1OC (stereo unspecified)"
  Activity (%): 19
- compound: "CC(C)(C)NCC(O)COc1ccc2c(=O)cc(-c3cc(OCc4ccccc4)cc(OCc4ccccc4)c3)oc2c1 (racemic)"
  Activity (%): 9
- compound: "CC(C)NCC(O)COc1ccc2c(=O)cc(-c3cc(OCc4ccccc4Cl)cc(OCc4ccccc4Cl)c3)oc2c1 (stereo unspecified)"
  Activity (%): 30.2
- compound: "COc1cc(-c2cc(=O)c3ccc(OCC(O)CN4CCN(c5ccccc5)CC4)cc3o2)cc(OC)c1OC (stereo unspecified)"
  Activity (%): 23
- compound: "COc1cc(-c2cc(=O)c3ccc(OCC(O)CNC(C)(C)C)cc3o2)cc(OC)c1OC (stereo unspecified)"
  Activity (%): 28

We now examine a further compound.
Which Activity is reported for this compound? Cc1ccc(COc2cc(OCc3ccc(C)cc3)cc(-c3cc(=O)c4ccc(OCC(O)CNC(C)(C)C)cc4o3)c2)cc1 (stereo unspecified)
12.8
